This collection of values is drawn from the supplement of paper PMC10567573.

Listing of entries alongside the reported protein stability index.
# test_name: protein stability index of a GFP-peptide fusion (GPS, HEK-293T) (PSI 1-6); higher = more stable;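 note: 24-mer peptide tiles fused after GFP, lentivirally expressed, FACS-sorted into six equal bins by GFP/DsRed ratio, decoded by Illumina sequencing, PSI is the read-weighted mean bin number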
# assay_conditions: treatment: DMSO; c terminus: a fixed tail appended
recorded_metric: protein stability index

polymer_sequence: QEEMAEDPLTYKSRLMVVVKMDSS [RHOBTB2]
reported_value: 3.45
--
polymer_sequence: YDMSDTNSDPEVVNVDNLLAAAVV [C18orf25]
reported_value: 4.06
--
polymer_sequence: RHSISMPAMRNSPTFKSFEERVET [TPD52L1]
reported_value: 4.66
--
polymer_sequence: KFFFKSMDDDFGVVKEEISDDNAK [DVL3]
reported_value: 4.76
--
polymer_sequence: VLTIALPVPVIVSNFNYFYHRETE [KCNA1]
reported_value: 3.02
--
polymer_sequence: NVGLESKYLKKREDSIPLRGLSQN [SASS6]
reported_value: 4.34
--
polymer_sequence: STDSGFCLDSPGPLDSKENLENPM [CDC25A]
reported_value: 5.32
--
polymer_sequence: EKINKIKWLPQQNAAHSLLSTNDK [PPP2R2C]
reported_value: 4.07
--
polymer_sequence: HIWELSSIKNSLKVAAISESPVAE [PTGFR]
reported_value: 3.11
--
polymer_sequence: LMRHGMEKIWRPNRVFSLQDLCCR [RAB40C]
reported_value: 2.74
--
polymer_sequence: VITLDPQTASRSLVLSEDRKSVRY [TRIM15]
reported_value: 3.44
--
polymer_sequence: ELQREWLGNREALIQFLEQVHQGI [CPN1]
reported_value: 2.76
--
polymer_sequence: LGPCVVGYGIYYFIYSTWKGRTIY [SAT2]
reported_value: 2.97
--
polymer_sequence: GGFAKCYEMTDLTNNKVYAAKIIP [PLK2]
reported_value: 2.52
--
polymer_sequence: LSKFDLPEEPSAEDSINNSLVQLQ [MYBL2]
reported_value: 4.88
--
polymer_sequence: ARGTGSGEDSSTSSSTPLEDEEPQ [RTN2]
reported_value: 5.7
--
polymer_sequence: CKRNFVAVYDGSSSVEDLKAKFCS [NETO1]
reported_value: 2.78
--
polymer_sequence: ITLLILAELLIFSVPIVYEKYKTQ [RTN3]
reported_value: 3.41
--
polymer_sequence: VWVGVIRYLTFFHNYNILIATLRV [MCOLN1]
reported_value: 3.13
--
polymer_sequence: REEEEKTPPETKPDPPVNFLRQKV [PCMTD2]
reported_value: 5.34
--
polymer_sequence: VQGLMKEYLLSFPAGKTPVPAGEE [VPS39]
reported_value: 3.83
--
polymer_sequence: AVRCASGRCTVRDFIHRHCQDQNV [SDE2]
reported_value: 2.59
--
polymer_sequence: TGSYNNFFRMFDRNTKRDVTLEAS [PPP2R2B]
reported_value: 3.1
--
polymer_sequence: NHRLISEILSESVVPDVRSVVTTA [SMARCE1]
reported_value: 3.31
--
polymer_sequence: TSVQEADETTRSDISERPSVDDIE [C2CD2L]
reported_value: 5.57
--
polymer_sequence: APSFSSYLYFLFCPTLIYRETYPR [SOAT2]
reported_value: 2.99
--
polymer_sequence: LVSRHDPASRRRVVEEVRRRATSG [LPCAT4]
reported_value: 4.5
